Measured product detected and determined, B. Circulans M-1123-5, listed per entry.
# Tested on: B. Circulans M-1123-5 acylase
# experiment description: Selectivity of the acylases
# test context: ester (I) 45 mg, amine (II) 9 mg, 37° C., 3 hours 45 minutes; TLC and paper-disc assay with Bacillus subtilis PCI-219
Keep it simple and answer with nothing but the number.

In the examples that follow, each entry is paired with its recorded product detected and determined, B. Circulans M-1123-5.
> print(dat)
                                   compound                  target.entity  observed.value
1  O=C(Cc1ccccc1)OCCOCCOCCOCCO [drawing 18]  B. Circulans M-1123-5 acylase            36.2
2  COCCOCCOC(=O)C(N)c1ccccc1 (stereo not shown)  B. Circulans M-1123-5 acylase            29.6

Let us examine a further case.
Requested field: product detected and determined, B. Circulans M-1123-5. Item: COCCOCCOCCOCCOCCOC(=O)Cn1cnnn1 55.7

Ref: patent US4340672A
